Item-by-item account of GI50
Test system: A498
Assay: NCI tumour cell line growth inhibition, 48 h
Calls of active or inactive are those of the source. No stated cut-off is given here; in the data, active = GI50 up to about 1.1 µM and inactive = higher.

# count of solved cases: 3
N#Cc1c(N)sc2c1-c1ccccc1OC2; 29.3 µM (inactive)
CCCCC(C)/C=C/C(O)=C1\C(=O)O/C(=C\C(=O)O)C1=O (centres undefined); > 100 µM (inactive)
CCOc1ccc2nc3cc(/N=N/c4ccc(N)nc4N)ccc3c(N)c2c1; 8.89 µM (inactive)

# context switch: different compound, same GI50
What value of GI50 has been reported for the following compound? O=c1[nH]c(=S)[nH]n1C(=S)n1[nH]c(=S)[nH]c1=O
> 100 µM (inactive)

* * *

Tested on: ACHN
Experiment: NCI tumour cell line growth inhibition, 48 h
The source made the active and inactive calls. Rule as the data show it: active = GI50 up to about 1.1 µM and inactive = higher.
Returns: one label drawn from Yes = active, No = inactive

Completed entries (count: 3):
O=C(O)c1ccc(Nc2nc3nn(Cc4ccccc4)cc3c(=O)s2)cc1; No
CC(=O)N(C(C)=O)c1c(N)n(C)c(=O)[nH]c1=O; No
COc1cc(/C=C(\C#N)c2nc3ccccc3o2)ccc1O; No

Which outcome was assigned to CCOC(=O)Cn1c(=O)c2nc(SC)sc2n(-c2ccccc2)c1=S in this test?
No

Which outcome was assigned to CC1(C(=O)Nc2ccc3ccccc3c2)CC2(C)CC(C)(C1)C(O)NC2=O (stereo not given) in this test?
No

Which outcome was assigned to O=C1CC(Sc2nc3ccc(I)cc3c(=O)n2Cc2ccccc2)C(=O)NN1 (stereo not given) in this test?
No

Which outcome was assigned to CC(=O)OC1(C#N)CC2OC1C1C2N=NN1C(=O)OC(C)(C)C (stereo not given) in this test?
No

Which outcome was assigned to CC(C)c1ccc(Cc2ccc(C(C)C)c(NC(=O)C(=O)Cc3cnc4ccccc4n3)c2C(C)C)c(C(C)C)c1NC(=O)C(=O)Cc1cnc2ccccc2n1 in this test?
No

Which outcome was assigned to CC1=NC(=N)N=C(C)C1/N=N/c1ccc2[nH]c(C)nc2c1 (stereo not given) in this test?
No

Which outcome was assigned to COc1ccc(CC(C#N)c2cc(OC)c(OC)c(OC)c2)cc1 (stereo not given) in this test?
Yes

* * *

Test system: BT-549
Test: NCI tumour cell line growth inhibition, 48 h
Active and inactive are the calls of the source. Cut-off read from the data, not from the text of the source: active = GI50 up to about 1.1 µM and inactive = higher.
Item-by-item account of GI50

CSc1nc2c(c(=O)[nH]1)N=C(c1ccccc1)CC(c1ccccc1)N2 (centres undefined); 28.5 µM (inactive)
CN1COCc2cc3cc4c(cc3nc21)OCCO4; 87.3 µM (inactive)
COc1cc(C)cc(C(=O)OCc2ccccc2)c1C1=C(Cl)C(=O)C(Cl)=CC1=O; > 10 µM (inactive)

# context switch: different compound, same GI50
What value of GI50 has been reported for the following compound? COc1cc2c(c(OC)c1)[C@H](C)N(Cc1ccccc1)C(C)C2 (some centres undefined)
61.8 µM (inactive)

* * *

Item-by-item account of GI50
Test system: Malme-3M
Assay: NCI tumour cell line growth inhibition, 48 h
Calls of active or inactive are those of the source. No stated cut-off is given here; in the data, active = GI50 up to about 1.1 µM and inactive = higher.

# count of solved cases: 5
C=C(CN(C)C)C(=O)c1ccccc1OC; 7.66 µM (inactive)
CN(C)c1ccc(/C=C(/NC(=O)c2ccccc2)c2nc3cc(Cl)ccc3[nH]2)cc1; 23.1 µM (inactive)
Cn1c2ccccc2n2c(=O)c3c(c(C#N)c12)CCCC3; > 100 µM (inactive)
COc1ccc2oc(=O)c3c(c2c1C)OC(C)(C)C=C3; > 100 µM (inactive)
COC1=C(N)C(=O)c2nc(C)ccc2C1=O; 1.77 µM (inactive)

# context switch: different compound, same GI50
Requested read-out GI50, target or system Malme-3M, entry C[C@@H]1C2=CC[C@@]3(C)C(CCC3[C@H](C)[C@H]3C[C@@]4(C)O[C@@](c5cccnc5)(O3)OC4(C)C)[C@@H]2C2OC2[C@@]12CCC(=O)O2 (stereo partly specified)
37.4 µM (inactive)

The measurements presented in this section are drawn from ChEMBL document CHEMBL1201862.
